- Tested on: L. braziliensis promastigote forms
- Measurement Protocol: Promastigote forms assay
- Assay type: cell-based, Leishmania braziliensis
- Measurement Context: Leishmania braziliensis, 72 h
Exercise: for every item that follows, state its recorded IC50.
Write down the numeric answer in µM and omit the unit.

Query :: Bench note: what IC50 did C[C@H]1O[C@H](Oc2cc(O)c3c(=O)c(O[C@@H]4O[C@H](CO)[C@@H](O)[C@H](O)[C@H]4O)c(-c4ccc(O)c(O)c4)oc3c2)[C@@H](O)[C@@H](O)[C@@H]1O [Compound 7, petiolaroside] show?
Result :: 21.1

Query :: Bench note: what IC50 did CC(=O)OC[C@H]1O[C@@H](Oc2c(-c3ccc(OC(C)=O)c(OC(C)=O)c3)oc3cc(O[C@@H]4O[C@@H](C)[C@H](OC(C)=O)[C@@H](OC(C)=O)[C@H]4OC(C)=O)cc(OC(C)=O)c3c2=O)[C@H](OC(C)=O)[C@@H](OC(C)=O)[C@@H]1OC(C)=O [Compound 9, petiolaroside decacetate] show?
Result :: 32.3

Query :: Bench note: what IC50 did CC(=O)O[C@H]1[C@H](Oc2c(-c3ccc(O)c(O)c3)oc3cc(O[C@@H]4O[C@@H](C)[C@H](O)[C@@H](O)[C@H]4O)cc(O)c3c2=O)O[C@H](CO)[C@@H](O)[C@@H]1O [Compound 8, 2′′-acetylpetiolaroside] show?
Result :: 29

Query :: Bench note: what IC50 did `CC(=O)O[C@H]1[C@H](Oc2c(-c3ccc(O)cc3)oc3cc(O)cc(O)c3c2=O)O[C@H](CO)[C@@H](O)[C@@H]1O` show?
Result :: 25.1

Query :: Bench note: what IC50 did `CC(=O)OC[C@H]1O[C@@H](Oc2c(-c3ccc(OC(C)=O)cc3)oc3cc(OC(C)=O)cc(OC(C)=O)c3c2=O)[C@H](OC(C)=O)[C@@H](OC(C)=O)[C@@H]1OC(C)=O` show?
Result :: 28.4

Query :: Bench note: what IC50 did `CC(=O)OC[C@H]1O[C@@H](Oc2cc(OC(C)=O)c3c(=O)c(O[C@@H]4O[C@H](COC(C)=O)[C@@H](OC(C)=O)[C@H](OC(C)=O)[C@H]4OC(C)=O)c(-c4ccc(OC(C)=O)cc4)oc3c2)[C@H](OC(C)=O)[C@@H](OC(C)=O)[C@@H]1OC(C)=O` show?
Result :: 31.3

Query :: Bench note: what IC50 did CC(=O)O[C@H]1[C@H](Oc2c(-c3ccc(O)cc3)oc3cc(O[C@@H]4O[C@H](CO)[C@@H](O)[C@H](O)[C@H]4O)cc(O)c3c2=O)O[C@H](CO)[C@@H](O)[C@@H]1O [Compound 5, 2′′-acetylpaeonoside] show?
Result :: 34.1

Query :: Bench note: what IC50 did `O=c1c(O[C@@H]2O[C@H](CO)[C@@H](O)[C@H](O)[C@H]2O)c(-c2ccc(O)cc2)oc2cc(O)cc(O)c12` show?
Result :: 28.1

* * *

- System: L. braziliensis intracellular amastigote forms
- Measurement Protocol: Intracellular amastigote forms assay in J774.2 macrophages
- Assay type: cell-based, Leishmania braziliensis
- Measurement Context: Leishmania braziliensis; L. braziliensis in J774.2 macrophages; 72 h
- Experimental: Cells were seeded at a density of 1 × 10^4 cells/well in 24-well microplates (Nunc) with rounded coverslips on the bottom and cultured for 2 days. […] Drug activity was determined on the basis of number of amastigotes in treated and untreated cultures in methanol-fixed and Giemsa-stained preparations. The number of amastigotes was determined by analyzing 200 host cells distributed in randomly chosen microscopic fields. […]
Exercise: for every item that follows, state its recorded pIC50.
Hey, just a heads up that pIC50 is the negative log base 10 of the concentration in molar.

Query :: Recall the recorded pIC50 for CC(=O)O[C@H]1[C@H](Oc2c(-c3ccc(O)cc3)oc3cc(O)cc(O)c3c2=O)O[C@H](CO)[C@@H](O)[C@@H]1O [Compound 2] with L. braziliensis intracellular amastigote forms and state it.
Result :: 4.52

Query :: Recall the recorded pIC50 for CC(=O)OC[C@H]1O[C@@H](Oc2c(-c3ccc(OC(C)=O)c(OC(C)=O)c3)oc3cc(O[C@@H]4O[C@@H](C)[C@H](OC(C)=O)[C@@H](OC(C)=O)[C@H]4OC(C)=O)cc(OC(C)=O)c3c2=O)[C@H](OC(C)=O)[C@@H](OC(C)=O)[C@@H]1OC(C)=O [Compound 9, petiolaroside decacetate] with L. braziliensis intracellular amastigote forms and state it.
Result :: 4.68

Query :: Recall the recorded pIC50 for CC(=O)O[C@H]1[C@H](Oc2c(-c3ccc(O)cc3)oc3cc(O[C@@H]4O[C@H](CO)[C@@H](O)[C@H](O)[C@H]4O)cc(O)c3c2=O)O[C@H](CO)[C@@H](O)[C@@H]1O [Compound 5, 2′′-acetylpaeonoside] with L. braziliensis intracellular amastigote forms and state it.
Result :: 4.29

Query :: Recall the recorded pIC50 for CC(=O)OC[C@H]1O[C@@H](Oc2cc(OC(C)=O)c3c(=O)c(O[C@@H]4O[C@H](COC(C)=O)[C@@H](OC(C)=O)[C@H](OC(C)=O)[C@H]4OC(C)=O)c(-c4ccc(OC(C)=O)cc4)oc3c2)[C@H](OC(C)=O)[C@@H](OC(C)=O)[C@@H]1OC(C)=O [Compound 6] with L. braziliensis intracellular amastigote forms and state it.
Result :: 4.52

Query :: Recall the recorded pIC50 for CC(=O)O[C@H]1[C@H](Oc2c(-c3ccc(O)c(O)c3)oc3cc(O[C@@H]4O[C@@H](C)[C@H](O)[C@@H](O)[C@H]4O)cc(O)c3c2=O)O[C@H](CO)[C@@H](O)[C@@H]1O [Compound 8, 2′′-acetylpetiolaroside] with L. braziliensis intracellular amastigote forms and state it.
Result :: 4.70

Query :: Recall the recorded pIC50 for CC(=O)OC[C@H]1O[C@@H](Oc2c(-c3ccc(OC(C)=O)cc3)oc3cc(OC(C)=O)cc(OC(C)=O)c3c2=O)[C@H](OC(C)=O)[C@@H](OC(C)=O)[C@@H]1OC(C)=O [Compound 3] with L. braziliensis intracellular amastigote forms and state it.
Result :: 4.38

Query :: Recall the recorded pIC50 for O=c1c(O[C@@H]2O[C@H](CO)[C@@H](O)[C@H](O)[C@H]2O)c(-c2ccc(O)cc2)oc2cc(O)cc(O)c12 [Compound 1, astragalin] with L. braziliensis intracellular amastigote forms and state it.
Result :: 4.49

Query :: Recall the recorded pIC50 for C[C@H]1O[C@H](Oc2cc(O)c3c(=O)c(O[C@@H]4O[C@H](CO)[C@@H](O)[C@H](O)[C@H]4O)c(-c4ccc(O)c(O)c4)oc3c2)[C@@H](O)[C@@H](O)[C@@H]1O [Compound 7, petiolaroside] with L. braziliensis intracellular amastigote forms and state it.
Result :: 4.47

* * *

- Test system: L. braziliensis axenic amastigote forms
- Measurement Protocol: Axenic amastigote forms assay
- Assay type: cell-based, Leishmania braziliensis
- Measurement Context: Leishmania braziliensis, 48 hours per method (72 h)
Observable: pIC50
Hey, just a heads up that pIC50 is the negative log base 10 of the concentration in molar.

Query :: Bench note: what pIC50 did CC(=O)OC[C@H]1O[C@@H](Oc2c(-c3ccc(OC(C)=O)c(OC(C)=O)c3)oc3cc(O[C@@H]4O[C@@H](C)[C@H](OC(C)=O)[C@@H](OC(C)=O)[C@H]4OC(C)=O)cc(OC(C)=O)c3c2=O)[C@H](OC(C)=O)[C@@H](OC(C)=O)[C@@H]1OC(C)=O [Compound 9, petiolaroside decacetate] show?
Result :: 4.61

Query :: Bench note: what pIC50 did C[C@H]1O[C@H](Oc2cc(O)c3c(=O)c(O[C@@H]4O[C@H](CO)[C@@H](O)[C@H](O)[C@H]4O)c(-c4ccc(O)c(O)c4)oc3c2)[C@@H](O)[C@@H](O)[C@@H]1O [Compound 7, petiolaroside] show?
Result :: 4.71

Query :: Bench note: what pIC50 did `CC(=O)OC[C@H]1O[C@@H](Oc2c(-c3ccc(OC(C)=O)cc3)oc3cc(OC(C)=O)cc(OC(C)=O)c3c2=O)[C@H](OC(C)=O)[C@@H](OC(C)=O)[C@@H]1OC(C)=O` show?
Result :: 4.48

Query :: Bench note: what pIC50 did `CC(=O)OC[C@H]1O[C@@H](Oc2cc(OC(C)=O)c3c(=O)c(O[C@@H]4O[C@H](COC(C)=O)[C@@H](OC(C)=O)[C@H](OC(C)=O)[C@H]4OC(C)=O)c(-c4ccc(OC(C)=O)cc4)oc3c2)[C@H](OC(C)=O)[C@@H](OC(C)=O)[C@@H]1OC(C)=O` show?
Result :: 4.55

Query :: Bench note: what pIC50 did `CC(=O)O[C@H]1[C@H](Oc2c(-c3ccc(O)cc3)oc3cc(O)cc(O)c3c2=O)O[C@H](CO)[C@@H](O)[C@@H]1O` show?
Result :: 4.55
